system: larvae of the mustard beetle (Phaedon cochleariae); experiment: Phaedon test (PHAECO spray treatment); conditions: Phaedon cochleariae, 168 h, read-out: activity in % (beetle larvae killed)
In this section, each of the compounds is paired with its reported pest or weed control at 100 g/ha.
Supply the numeric figure in %, leaving out any unit text.

Answered examples (2):
Cc1cc(Cl)cc(C(=O)NCc2ccc(C(F)(F)F)cn2)c1NC(=O)c1cc(Cn2nnc(C(F)(F)F)n2)nn1-c1ncccc1Cl: 100
Cc1cc(C#N)cc(C(=O)NC2CSC2)c1NC(=O)c1cc(Cn2nnc(C(F)(F)C(F)(F)F)n2)nn1-c1ncccc1Cl: 100

Challenge: Recall and state the measured pest or weed control at 100 g/ha for `Cc1cc(C#N)cc(C(=O)NCc2ccc(OC(F)F)cc2)c1NC(=O)c1cc(Cn2nnc(C(F)(F)F)n2)nn1-c1ccccc1Cl` .
Response given: 100
